Reference source: patent US20250011410A1

Here the recorded koff is given for each entry.
TARGET OR SYSTEM: T1, canine NGF tagged at the C-terminus with the Flag tag (canine, UniProt A0A8I3PYI3 122-241)
T1 construct: mature; Expressed with baculovirus technology; also called feline NGF (processed form identical)
T1 sequence (A0A8I3PYI3 entry or part of it): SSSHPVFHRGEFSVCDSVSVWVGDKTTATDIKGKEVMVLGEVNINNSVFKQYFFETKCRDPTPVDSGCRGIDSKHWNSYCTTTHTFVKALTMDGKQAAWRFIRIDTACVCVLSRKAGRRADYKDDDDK
EXPERIMENT DESCRIPTION: SPR off-rate screen, Fab-SASA on BSA chip

# BINDER, koff, s⁻¹
measured = [
    ("felinized clone 101 Fab-SASA variant S31H (VH) (Fab, V domains shown, not shown: small tags and cut ends) VH: DVQLVESGGDLVKPGGSLRLTCVASGLSLTHSSMSWVRQAPGKGLQWVSTIYSNGGTYYTDSVKGRFTISKDNAENTLYLQMNNLKTEDTATYYCASIYYYDADYLHWYFDFWGQGALVTVSS VL: EIQMTQSPTSLSASVGDRVTITCRASEGISNNLSWYQQTPGKAPKLLIYATSNLHSGVPSRFSGSGSGTDFTLTISSLQPEDFATYYCQQGYKWPLTFGGGTKLEITR", 0.000612),
    ("felinized clone 101 Fab-SASA variant D104Q (VH) (Fab, V domains shown, not shown: small tags and cut ends) VH: DVQLVESGGDLVKPGGSLRLTCVASGLSLTSSSMSWVRQAPGKGLQWVSTIYSNGGTYYTDSVKGRFTISKDNAENTLYLQMNNLKTEDTATYYCASIYYYDAQYLHWYFDFWGQGALVTVSS VL: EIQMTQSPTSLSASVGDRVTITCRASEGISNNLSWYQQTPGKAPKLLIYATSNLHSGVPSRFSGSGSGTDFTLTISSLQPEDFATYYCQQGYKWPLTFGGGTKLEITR", 0.000478),
    ("felinized clone 101 Fab-SASA variant Y101H (VH) (Fab, V domains shown, not shown: small tags and cut ends) VH: DVQLVESGGDLVKPGGSLRLTCVASGLSLTSSSMSWVRQAPGKGLQWVSTIYSNGGTYYTDSVKGRFTISKDNAENTLYLQMNNLKTEDTATYYCASIYYHDADYLHWYFDFWGQGALVTVSS VL: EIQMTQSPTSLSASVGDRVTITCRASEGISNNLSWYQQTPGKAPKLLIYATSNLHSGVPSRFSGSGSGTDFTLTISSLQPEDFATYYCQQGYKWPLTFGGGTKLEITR", 0.000496),
    ("felinized clone 101 Fab-SASA variant S30V (VL) (Fab, V domains shown, not shown: small tags and cut ends) VH: DVQLVESGGDLVKPGGSLRLTCVASGLSLTSSSMSWVRQAPGKGLQWVSTIYSNGGTYYTDSVKGRFTISKDNAENTLYLQMNNLKTEDTATYYCASIYYYDADYLHWYFDFWGQGALVTVSS VL: EIQMTQSPTSLSASVGDRVTITCRASEGIVNNLSWYQQTPGKAPKLLIYATSNLHSGVPSRFSGSGSGTDFTLTISSLQPEDFATYYCQQGYKWPLTFGGGTKLEITR", 0.000483),
    ("felinized clone 101 Fab-SASA variant S97T (VH) (Fab, V domains shown, not shown: small tags and cut ends, Fab-SASA in conditioned medium) VH: DVQLVESGGDLVKPGGSLRLTCVASGLSLTSSSMSWVRQAPGKGLQWVSTIYSNGGTYYTDSVKGRFTISKDNAENTLYLQMNNLKTEDTATYYCATIYYYDADYLHWYFDFWGQGALVTVSS VL: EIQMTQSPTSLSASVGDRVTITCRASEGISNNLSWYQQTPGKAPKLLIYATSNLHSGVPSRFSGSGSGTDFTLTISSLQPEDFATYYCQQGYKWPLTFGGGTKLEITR", 0.000716),
]
